Molecular target: Thrombin and coagulation factor VII (Homo sapiens) (UniProt P00734+P08709)
Experiment: Selectivity for coagulation factor VIIa over thrombin IIa.
Format: protein assay
Measurement Label: Selectivity

Recorded results for 2 molecules are shown here.
INSERT INTO assay_data (compound_structure_string, assayed_system, measurement_label, assay_value) VALUES
  ('N=C(N)NCCC[C@H](NC(=O)[C@H](Cc1ccc(Br)cc1)NC(=O)[C@@H](Cc1ccccc1)NS(=O)(=O)Cc1ccccc1)C(=O)c1nccs1', 'Thrombin and coagulation factor VII (Homo sapiens) (UniProt P00734+P08709)', 'Selectivity', 4),
  ('N=C(N)NCCC[C@H](NC(=O)[C@H](CC1CCCCC1)NC(=O)[C@@H](Cc1ccccc1)NS(=O)(=O)Cc1ccccc1)C(=O)c1nccs1', 'Thrombin and coagulation factor VII (Homo sapiens) (UniProt P00734+P08709)', 'Selectivity', 7);

A. N=C(N)NCCC[C@H](NC(=O)[C@H](Cc1ccc(Cl)cc1)NC(=O)[C@@H](Cc1ccccc1)NS(=O)(=O)Cc1ccccc1)C(=O)c1nccs1
B. N=C(N)NCCC[C@H](NC(=O)[C@H](CC1CC1)NC(=O)[C@@H](Cc1ccccc1)NS(=O)(=O)Cc1ccccc1)C(=O)c1nccs1
C. N=C(N)NCCC[C@H](NC(=O)[C@H](Cc1csc2ccccc12)NC(=O)[C@@H](Cc1ccccc1)NS(=O)(=O)Cc1ccccc1)C(=O)c1nccs1
Output the entries ranked by Selectivity from maximum down to minimum. Reply: labels, ordered per the request.
B, A, C
(B: 11, A: 5, C: 3)
